Hey, just so you know, these numbers are from patent US20040259764A1.

Could you please report measured SPS (Spleen) for the items listed next?
Tested on: Reticulocyte Depletion Signature (Alas2 and peripherin probes), spleen
Conditions: rat, in vivo
Give your answer as a number; write no unit.

The recorded SPS (Spleen) for CS(=O)(=O)OCCCCOS(C)(=O)=O [BUSULFAN] is 34

For this compound ( CN(C)c1nc(N(C)C)nc(N(C)C)n1 [ALTRETAMINE] ), measured SPS (Spleen) is 0

Per the records, this compound ( Oc1c(Cl)cc(Cl)cc1Sc1cc(Cl)cc(Cl)c1O [BITHIONOL] ) has SPS (Spleen) equal to 27

Lab note: CC(C)(c1ccc(O)cc1)c1ccc(O)cc1 [BISPHENOL A] gave SPS (Spleen) of 0

Lab note: Nc1ccn([C@@H]2O[C@H](CO)[C@@H](O)[C@@H]2O)c(=O)n1 [CYTARABINE] gave SPS (Spleen) of 17
